molecular target: BSA (UniProt P02769); assay: scFv ELISA
Sequence (P02769 25-607 limits assumed): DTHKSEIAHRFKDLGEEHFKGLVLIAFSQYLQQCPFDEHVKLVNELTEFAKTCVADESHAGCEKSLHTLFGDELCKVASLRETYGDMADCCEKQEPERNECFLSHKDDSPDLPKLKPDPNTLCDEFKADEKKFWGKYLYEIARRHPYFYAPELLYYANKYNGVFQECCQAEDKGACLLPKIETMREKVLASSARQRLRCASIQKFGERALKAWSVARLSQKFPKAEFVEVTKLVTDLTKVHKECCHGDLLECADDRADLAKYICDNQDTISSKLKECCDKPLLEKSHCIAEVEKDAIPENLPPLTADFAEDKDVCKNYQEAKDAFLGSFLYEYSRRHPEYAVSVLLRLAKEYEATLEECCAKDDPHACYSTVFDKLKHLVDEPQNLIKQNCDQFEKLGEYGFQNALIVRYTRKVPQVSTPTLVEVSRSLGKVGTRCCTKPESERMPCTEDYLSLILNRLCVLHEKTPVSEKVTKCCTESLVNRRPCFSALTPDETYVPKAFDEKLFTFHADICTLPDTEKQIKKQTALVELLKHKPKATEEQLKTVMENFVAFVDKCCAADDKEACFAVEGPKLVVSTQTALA
metric name: OD450 (OD450)
State just the number; it will be interpreted in OD450.

Ask: Supply recorded OD450 for PcOxP_DB02_F11 (scFv, V domains shown, scFv in periplasmic extract) VH: EVQLLESGGGLVQPGGSLRLSCAASGTTFSDFYMEWVRQAPGKGLEWVAASRNKYNDYTTEYADSVKGRFTISRDNSKNTLYLQMNSLRAEDTAVYYCARDYYGSSYWYFDVWGQGTLVTVSS VL: DIVMTQSPDSLAVSLGERATINCTASESLYSSKHKVHYLAWYQQKPGQPPKLLIYGASNRYPGVPDRFSGSGSGTDFTLTISSLQAEDVAVYYCAQFYSYPLTFGGGTKVEIK here.
Reply: 0.08

Ask: Answer with the recorded OD450 for the binder listed here: PcOxP_DB01_D05 (scFv, V domains shown, scFv in periplasmic extract) VH: EVQLLESGGGLVQPGGSLRLSCAASGFTFSDGYMEWVRQAPGKGLEWVAASRNKANDYTTEYADSVKGRFTISRDNSKNTLYLQMNSLRAEDTAVYYCARDYYGSPYWYFDVWGQGTLVTVSS VL: DIQMTQSPSSLSASVGDRVTITCTASESLYSSKHKVHYLAWYQQKPGKAPKLLIYGASNRYVGVPSRFSGSGSGTDFTLTISSLQPEDFATYYCAQFYSYPLTFGGGTKVEIK
Reply: 0.1

Ask: Determine its reported OD450: PcOxP_DB03_C08 (scFv, V domains shown, scFv in periplasmic extract) VH: EVQLLESGGGLVQPGGSLRLSCAASGSTFSDFYMEWVRQAPGKGLEWVAASRNKANDFTTEYADSVKGRFTISRDNSKNTLYLQMNSLRAEDTAVYYCARDYYGSSYWYFDVWGQGTLVTVSS VL: DIVMTQSPDSLAVSLGERATINCTASESLYSSKHKVHYLAWYQQKPGQPPKLLIYGASNRYSGVPDRFSGSGSGTDFTLTISSLQAEDVAVYYCAQFYHYPLTFGGGTKVEIK
Reply: 0.06

Ask: Determine from records and report OD450 for PcOxP_DB01_B08 (scFv, V domains shown, scFv in periplasmic extract) VH: EVQLLESGGGLVQPGGSLRLSCAASGFTFSDSYMEWVRQAPGKGLEWVAASRNKANDYTTSYADSVKGRFTISRDNSKNTLYLQMNSLRAEDTAVYYCARDYYGSSYWYFDVWGQGTLVTVSS VL: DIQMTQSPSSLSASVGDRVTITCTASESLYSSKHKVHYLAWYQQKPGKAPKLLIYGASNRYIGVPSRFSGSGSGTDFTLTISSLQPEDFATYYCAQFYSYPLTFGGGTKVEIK
Reply: 0.1

Ask: Return reported OD450. Input binder: PcOxP_DB03_F05 (scFv, V domains shown, scFv in periplasmic extract) VH: EVQLLESGGGLVQPGGSLRLSCAASGFTFSDYYMEWVRQAPGKGLEWVAASRNKGNDYTTAYADSVKGRFTISRDNSKNTLYLQMNSLRAEDTAVYYCARDYFGSSYWYFDVWGQGTLVTVSS VL: DIVMTQSPDSLAVSLGERATINCTASQSVYSSKHNKHYLAWYQQKPGQPPKLLIYGASNPYIGVPDRFSGSGSGTDFTLTISSLQAEDVAVYYCAQFYSYPLTFGGGTKVEIK
Reply: 0.06
